Measured endpoint: melting point

Task: If you can, please state the reported melting point value of COc1ccc(S(=O)(=O)n2cc(CNc3ccc(Br)cc3)c(-c3ccc(Br)cc3)n2)cc1 [8c] .
Output: 162 to 164 °C

Task: Cool, now COc1ccc(S(=O)(=O)n2cc(CNc3ccc(Cl)cc3)c(-c3ccc(C)cc3)n2)cc1 [8j]
Output: 157 to 158 °C

Task: Cool, now COc1ccc(S(=O)(=O)n2cc(CNc3ccc(C)cc3)c(-c3ccc(Br)cc3)n2)cc1 [8d]
Output: 164 to 166 °C

Task: Cool, now O=S(=O)(c1ccccc1)n1cc(CNc2ccccc2)c(-c2ccc(Cl)cc2)n1 [7i]
Output: 117 to 118 °C

Task: Cool, now O=S(=O)(c1ccccc1)n1cc(CNc2ccc(Br)cc2)c(-c2ccccc2)n1 [7c]
Output: 122 °C

Measured values drawn from paper PMC6465675 for this set.
